- assay_details: Cytotoxicity against mock-infected C8166 cells by MTT assay
- Type: cell-based
- test_context: human, read-out: TC50 (the source's name)
# CC50 annotations

structure_smiles: Cc1cc(C)cc(S(=O)(=O)c2c(C(N)=O)[nH]c3cc(Cl)c(Cl)cc23)c1
CC50: > 20 µM

structure_smiles: Cc1cc(C)cc(S(=O)(=O)c2c(C(N)=O)[nH]c3ccc(F)c(Cl)c23)c1
CC50: > 20 µM

structure_smiles: NC(=O)c1[nH]c2cc(F)c(F)cc2c1S(=O)(=O)c1ccccc1
CC50: > 20 µM

structure_smiles: Cc1cc(C)cc(S(=O)(=O)c2c(C(N)=O)[nH]c3cc(F)c(F)cc23)c1
CC50: > 20 µM

structure_smiles: Cc1cc(C)cc(S(=O)(=O)c2c(C(N)=O)[nH]c3cc(Cl)c(F)cc23)c1
CC50: > 20 µM

structure_smiles: Cc1cc(C)cc(S(=O)(=O)c2c(C(N)=O)[nH]c3ccc(F)c(F)c23)c1
CC50: > 20 µM

structure_smiles: Cc1cc(C)cc(S(=O)(=O)c2c(C(N)=O)[nH]c3ccc(Cl)c(F)c23)c1
CC50: > 20 µM

* * *

# EC50 annotations
- Tested on: Human immunodeficiency virus 1
- assay_details: Antiviral activity against HIV1 RT 112 mutant in lymphocytes assessed as reduction of p24 antigen production
- Format: functional
- test_context: read-out: ED50 (the source's name)

structure_smiles: Cc1cc(C)cc(S(=O)(=O)c2c(C(N)=O)[nH]c3ccc(Cl)c(F)c23)c1
relation_qualifier: =
EC50, nM: 10
//
structure_smiles: Cc1ccnc2c1NC(=O)c1cccnc1N2C1CC1
relation_qualifier: >
EC50, nM: 20000
//
structure_smiles: Cc1cc(C)cc(S(=O)(=O)c2c(C(N)=O)[nH]c3ccc(F)c(F)c23)c1
relation_qualifier: =
EC50, nM: 130
//
structure_smiles: O=C1Nc2ccc(Cl)cc2[C@@](C#CC2CC2)(C(F)(F)F)O1
relation_qualifier: >
EC50, nM: 20000

* * *

# EC50 annotations
- System: Human immunodeficiency virus 1
- assay_details: Antiretroviral activity against HIV1 3BBa-L in macrophages assessed as reduction of p24 antigen production
- Assay type: functional
- test_context: Human immunodeficiency virus 1, 3BBa-L; read-out: ED50 (the source's name)
value_type: EC50 (nM)

structure_smiles: Cc1cc(C)cc(S(=O)(=O)c2c(C(N)=O)[nH]c3ccc(Cl)c(F)c23)c1
units_of_measure: nM
value_reported: 10

structure_smiles: Cc1cc(C)cc(S(=O)(=O)c2c(C(N)=O)[nH]c3ccc(F)c(F)c23)c1
units_of_measure: nM
value_reported: 23

* * *

- Tested on: Human immunodeficiency virus 1
- assay_details: Antiretroviral activity against wild type HIV1 in MT4 cells by MTT assay
- Type: functional
- test_context: Human immunodeficiency virus 1, MT4; read-out: ED50 (the source's name)
# EC50 annotations

structure_smiles: Cc1cc(C)cc(S(=O)(=O)c2c(C(N)=O)[nH]c3ccc(Cl)c(F)c23)c1
EC50 [nM]: 0.5

structure_smiles: Cc1cc(C)cc(S(=O)(=O)c2c(C(N)=O)[nH]c3cc(F)c(F)cc23)c1
EC50 [nM]: 20

structure_smiles: NC(=O)c1[nH]c2ccc(F)c(F)c2c1S(=O)(=O)c1ccccc1
EC50 [nM]: 8

structure_smiles: Cc1cc(C)cc(S(=O)(=O)c2c(C(N)=O)[nH]c3ccc(F)c(F)c23)c1
EC50 [nM]: 1

structure_smiles: Cc1cc(C)cc(S(=O)(=O)c2c(C(N)=O)[nH]c3cc(Cl)c(Cl)cc23)c1
EC50 [nM]: 10

structure_smiles: Cc1cc(C)cc(S(=O)(=O)c2c(C(N)=O)[nH]c3cc(F)c(Cl)cc23)c1
EC50 [nM]: 12

structure_smiles: Cc1cc(C)cc(S(=O)(=O)c2c(C(N)=O)[nH]c3c(Cl)cc(Cl)cc23)c1
EC50 [nM]: 21

structure_smiles: Cc1cc(C)cc(S(=O)(=O)c2c(C(N)=O)[nH]c3ccc(F)c(Cl)c23)c1
EC50 [nM]: 8

structure_smiles: NC(=O)c1[nH]c2cc(Cl)c(Cl)cc2c1S(=O)(=O)c1ccccc1
EC50 [nM]: 80

structure_smiles: Cc1cc(C)cc(S(=O)(=O)c2c(C(N)=O)[nH]c3cc(Cl)c(F)cc23)c1
EC50 [nM]: 50

structure_smiles: NC(=O)c1[nH]c2cc(F)c(F)cc2c1S(=O)(=O)c1ccccc1
EC50 [nM]: 16

structure_smiles: Cc1cc(C)cc(S(=O)(=O)c2c(C(N)=O)[nH]c3c(F)cc(F)cc23)c1
EC50 [nM]: 7
